Numbers sourced from the supplement of paper PMC9170038.

# Test system: MS2 coat protein
# ASSAY OVERVIEW: apparent KD of MS2 coat protein; designed switch direction (-1 OFF switch, 1 ON switch): -1; higher = weaker reporter binding
# CONDITIONS: input ligand: microRNA oligo, concentration not stated
VALUE KIND: apparent KD of MS2 coat protein (µM)
Please respond with the number in µM and leave the unit unwritten.

BIOPOLYMER SEQUENCE: ACAUGUAAUGCAGGAUAUCUGACACAUGAGGAUCACCCAUGUGACCAGAGGAAUUGCUAUGAGUCGGAGAAGGGUAUGUACAUG [Ex NG2 #54] (Eterna round: R96, puzzle: Exclusion NG 2)
VALUE KIND: apparent KD of MS2 coat protein
UNIT DESCRIPTOR: µM
VALUE OBSERVED: 0.0203

BIOPOLYMER SEQUENCE: GGUAGAGUGGUAGGAUAUCCGUCUGUUUCAGUCGGAGAAGGACCACAGUCACUGGGUCCUAAUAUGGGUGACCAUGUAUCUACC [pwkr exNG1 F6.11] (Eterna round: R96, puzzle: Exclusion NG 1)
VALUE KIND: apparent KD of MS2 coat protein
UNIT DESCRIPTOR: µM
VALUE OBSERVED: 0.279

BIOPOLYMER SEQUENCE: UGAUCUAGCGGAGGAUAUACAUGAGGAUCACCCAUGUAAAUCGCUGAACCGUAGUUCAGCAUCAUGUAGAAGGCCGCUAGAUCU [MOD2 ENG2 3.62 by JL] (Eterna round: R96, puzzle: Exclusion NG 2)
VALUE KIND: apparent KD of MS2 coat protein
UNIT DESCRIPTOR: µM
VALUE OBSERVED: 0.0556

Okay, now this sequence:
input: Look up and report measured apparent KD of MS2 coat protein (MS2 coat protein) for the following sequence: UUAUUAAAUGUAGGAUAUGCAUAUUAUUAUUAUGCAGAAGGACAUGAGGAUCACCCAUGUAUAUUAUUAUUAUUUAUUAUUUAU [Title] (Eterna round: R96, puzzle: Exclusion NG 1)
output: 0.0355

----------
# Test system: MS2 coat protein
# ASSAY OVERVIEW: apparent KD of MS2 coat protein; higher = weaker reporter binding
# CONDITIONS: Eterna round: R107; input ligand: theophylline 2 mM
Classify as follows. Reported apparent KD of MS2 coat protein greater than or equal to 50 nM: 1. Reported apparent KD of MS2 coat protein below: 0.

Worked examples follow.
BIOPOLYMER SEQUENCE: AUAAUUGGGUUAAUUAGUUUUAGGUCCAGUCGAGGACCGGUACGGCCGCCACUCGUUCCGAGAUACAUGAGGAUCACCCAUGUUA [JR_ExcTryptoA_Sub015]
CLASS LABEL: 0
//
BIOPOLYMER SEQUENCE: ACAUGAGGAUCACCCAUGUGAAGCAGGGUACGAGGACCGGUACGGCCGCCACUCGAGGAUUAUACCGAGUGAAUGGCAACGAUGU [whbob_Ex_trypto A_2s18]
CLASS LABEL: 0
//
BIOPOLYMER SEQUENCE: GCUUGGGUGGCACGGCCCUGGCGGUGCGAUACCAGCACGGUAACGUGCCCUUGGCAGCGCACAUGAGGAUCACCCAUGUGGUGCG [#1 Exclusion - Theophylline A Attempt #24 (HarryS)]
CLASS LABEL: 1
//
BIOPOLYMER SEQUENCE: GCACAAGAUGGAAGGAGCGCUGGAAAAGGUCACAUGAGGAUCACCCAUGUUCUCCUAACCGAGCAGGUAGGUCGCCAUCUUGUGC [SSAB NP+V+V2 #1]
CLASS LABEL: 0

input: Textbook exercise: given the entry UGGCAAGAGGGAAGGAGCGUCAGCUGAGUCACAUGAGGAUCACCCAUGUAGCACAUAGUGUGACAGGUAGGUCGCCCUCUGCCGU [SS-ArgB10] , state whether its apparent KD of MS2 coat protein is greater than or equal to 50 nM.
output: 0

input: Textbook exercise: given the entry ACAUGAGGAUCACCCAUGUGUGUAAAUCCUCGAGGACCGGUACGGCCGCCACUCGAACGAGUGUAAGUUGAAUGUAACAUUCAAC [SS Trp A v1] , state whether its apparent KD of MS2 coat protein is greater than or equal to 50 nM.
output: 1

input: Textbook exercise: given the entry GCCAAAGGCUACAUGAGGAUCACCCAUGUACGAGGACCGGUACGGCCGCCACUCGUACGGCCUCCUACUGGACGGGAAACCGUCG [ETA NP+V+V2 #28] , state whether its apparent KD of MS2 coat protein is greater than or equal to 50 nM.
output: 0

input: Textbook exercise: given the entry AUAACAUGAGGAUCACCCAUGUAAGCUGAAGGAGCGGACGAAAGUCCAGGUAGGUCGCAGCGCUCCUUCUGGUGAUCUGAAGGAG [(M1)-(M2)-(Arg1)-(Arg2)-(A)'-(M)'-(A)''_Design3] , state whether its apparent KD of MS2 coat protein is greater than or equal to 50 nM.
output: 1

input: Textbook exercise: given the entry CACGAAAGAUCGGCCGCCACUCAUGUUUCUUACAUGAGGAUCACCCAUGUAUUUUCUUUCUUUUAGAGGACCGGGAUCGAGCGUG [#01 Same State - Tryptophan B] , state whether its apparent KD of MS2 coat protein is greater than or equal to 50 nM.
output: 0

input: Textbook exercise: given the entry ACCUGUACGAAAAGUGCAGGACAUGGUAAACGAGGACCGGUACGGCCGCCACUCGAAUAACAAGUGGAUCACCCUUGUAACCAUG [TrypAS 5 #AlternativeMS2 #Zipper #StaticStem] , state whether its apparent KD of MS2 coat protein is greater than or equal to 50 nM.
output: 1

input: Textbook exercise: given the entry ACGAAACAAGCGGCCGCCACUUCGUGGUGCUAAGGCUUGAUACUACAUGAGGAUCACCCAUGUCGAAGGACCGGGCUUGCGACUG [theeternabot_sameState_MS2_Trp_B_33] , state whether its apparent KD of MS2 coat protein is greater than or equal to 50 nM.
output: 1

input: Textbook exercise: given the entry UGGGUUGGACCAGGAAAUGGUCUGACGCACCGAGGACCGGUACGGCCGCCACUCGGCCGUACAUGAGGAUCACCCAUGUCGGUGU [#1 Same State - Tryptophan A Attempt #13 (HarryS)] , state whether its apparent KD of MS2 coat protein is greater than or equal to 50 nM.
output: 1

----------
# System: MS2 coat protein
# ASSAY OVERVIEW: apparent KD of MS2 coat protein; designed switch direction (-1 OFF switch, 1 ON switch): -1; higher = weaker reporter binding
# CONDITIONS: input ligand: none
Classify as follows. Reported apparent KD of MS2 coat protein greater than or equal to 70 nM: true (1). Reported apparent KD of MS2 coat protein below: false (0).

BIOPOLYMER SEQUENCE: ACUGGUGCAGGAUAUACAUUCGUGCUUCGGCACGUAAGAUCACAUGAGGAUCACCCAUGUAGAAGGGCACCAGU [E2/5-D2] (Eterna round: R97, puzzle: Exclusion 2)
CLASS LABEL: true (1)

input: Textbook exercise: given the entry GGGAGCAGACGGAGAUCCAACAUGAGGAUCACCCAUGUCUCCCAAGCUUUUUGCUUGUCUUAUCCUCCUCUGUUUCC [Design #9] (Eterna round: R97, puzzle: Sensor, turn-off variant 1) , state whether its apparent KD of MS2 coat protein is greater than or equal to 70 nM.
output: false (0)

input: Textbook exercise: given the entry AAAUGGAACAGAGGAUAUAGGGACAUGAGGAUCACCCAUGUUUUUUUUGGUUGGGUGGGUUUGGGCUAGAAGGCUGGGAAGAAA [Kawasakiqro] (Eterna round: R96, puzzle: Exclusion NG 2) , state whether its apparent KD of MS2 coat protein is greater than or equal to 70 nM.
output: false (0)

input: Textbook exercise: given the entry ACAAGCUUUUAGAUUCUUAACAUGAGGAUCACCCAUGUGCUCGUCUUAUUUUCCGGCGGGCCGCCGGAAAAGCUUGU (Eterna round: R97, puzzle: Sensor, turn-off variant 1) , state whether its apparent KD of MS2 coat protein is greater than or equal to 70 nM.
output: true (1)

input: Textbook exercise: given the entry UGUAUACGAGGAUAUACAUGAGGAUCACCCAUGUGGACGUUGGAGAACGGCCCUCGUAGUAGAAGGCGUAUGAG [Eternabot (L2) Solution 53] (Eterna round: R97, puzzle: Exclusion 3) , state whether its apparent KD of MS2 coat protein is greater than or equal to 70 nM.
output: false (0)

input: Textbook exercise: given the entry CCAAGCUUAUUCAUUAACCACAUGAGGAUCACCCAUGUCUAGGCAAUUAUGACUUGCCCAUCAGGUGCUCGUCUUAU [Sensor-V1 #33] (Eterna round: R97, puzzle: Sensor, turn-off variant 1) , state whether its apparent KD of MS2 coat protein is greater than or equal to 70 nM.
output: true (1)
